Recorded IFNg Peptide + (donors positive to the peptide) values for a group of substances are listed next.
Tested on: peripheral blood mononuclear cells (PBMC), T cells
Assay: ELISpot assay, gamma-interferon release (SFC) after stimulation with a-synuclein epitope pools
Format: cell-based, human
Details: Patients Summary; PD patients; of donors tested (peptide)
Protocol: Blood from age matched controls and PD patients were obtained and mononuclear cells were isolated by gradient centrifugation. Release of the cytokines gamma-interferon, which measures activation of CD4+ and/or CD8+ T cells, and the interleukin, IL-5, which measures activation of CD4+ T cells was measured by ELISpot assay. […] After 22 hours of stimulation at 37 C, the cells were removed and release of cytokines was measured by colorimetric detection of spot-forming cells (SFC). […]
readoutKind: IFNg Peptide + (donors positive to the peptide)

substance="3521.008 (VAAAEKTKQGVAEAA; listed as Homo sapiens)" valuereported=1
substance="3521.0056 (YEMPSEEGYQ; listed as Homo sapiens)" valuereported=0
substance="3521.0054 (MPVDPDNEAY; listed as Homo sapiens)" valuereported=0
substance="3521.0037 (LYVGSKTKEG; listed as Homo sapiens)" valuereported=1
substance="3521.0006 (VLYVGSKTK; listed as Homo sapiens)" valuereported=5
substance="3521.0012 (KTKQGVAEA; listed as Homo sapiens)" valuereported=0
substance="3521.0032 (GAVVTGVTAV; listed as Homo sapiens)" valuereported=0
substance="3521.0013 (VTNVGGAVV; listed as Homo sapiens)" valuereported=1
substance="3521.0028 (MPSEEGYQDY; listed as Homo sapiens)" valuereported=0
substance="3521.0001 (PVDPDNEAY; listed as Homo sapiens)" valuereported=0

====

System: peripheral blood mononuclear cells (PBMC), T cells
Experiment: ELISpot assay, gamma-interferon release (SFC) after stimulation with a-synuclein epitope pools
Format: cell-based, human
Conditions: single peptide; second 'Pool Stimulated' section (from r296), 12 donors tested
Examples of substances with documented IFNg Total SFC follow.
readoutKind: IFNg Total SFC (SFC)

substance="3521.0085 (EGVVHGVATVAEKTK; listed as Homo sapiens)" valuereported=0
substance="3521.0061 (AATGFVKKDQ; listed as Homo sapiens)" valuereported=84
substance="3521.0011 (QVTNVGGAV; listed as Homo sapiens)" valuereported=0
substance="3521.0079 (KGVVHGVATVAEKTK; listed as Homo sapiens)" valuereported=0
substance="3521.002 (AGKTKEGVL; listed as Homo sapiens)" valuereported=0
substance="3521.0044 (GVTAVAQKTV; listed as Homo sapiens)" valuereported=0
substance="3521.003 (GSIAAATGFV; listed as Homo sapiens)" valuereported=0
substance="3521.0024 (DPDNEAYEM; listed as Homo sapiens)" valuereported=93.3
substance="3521.0042 (AGKTKEGVLY; listed as Homo sapiens)" valuereported=0
substance="3521.0051 (EEGAPQEGIL; listed as Homo sapiens)" valuereported=554
substance="3521.0052 (KTKQGVAEAA; listed as Homo sapiens)" valuereported=0
substance="3521.0076 (PGKTKEGVLYVGSKT; listed as Homo sapiens)" valuereported=300
substance="3521.0015 (KTKEQVTNV; listed as Homo sapiens)" valuereported=0
substance="3521.0043 (VFMKGLSKAK; listed as Homo sapiens)" valuereported=66.7
substance="3521.0049 (APQEGILEDM; listed as Homo sapiens)" valuereported=0
substance="3521.0014 (KTVEGAGSI; listed as Homo sapiens)" valuereported=0
substance="3521.0048 (EQVTNVGGAV; listed as Homo sapiens)" valuereported=0
substance="3521.0035 (SIAAATGFVK; listed as Homo sapiens)" valuereported=0
substance="3521.0073 (TTVAEKTKEQVTNVG; listed as Homo sapiens)" valuereported=0
substance="3521.0003 (SIAAATGFV; listed as Homo sapiens)" valuereported=33.3
substance="3521.0004 (KTKEGVLYV; listed as Homo sapiens)" valuereported=0

====

Test system: peripheral blood mononuclear cells (PBMC), T cells
Test: ELISpot assay, gamma-interferon release (SFC) after stimulation with a-synuclein epitope pools
Format: cell-based, human
Conditions: Patients Summary; Phospho pool peptides; 10 donors tested
readoutKind: IFNg Peptide + (donors positive to the peptide)

substance="3521.0026 (MPSEEGYQD; listed as Homo sapiens)" valuereported=4
substance="3521.0056 (YEMPSEEGYQ; listed as Homo sapiens)" valuereported=0
substance="3521.004 (DNEAYEMPSE; listed as Homo sapiens)" valuereported=2
substance="3521.0028 (MPSEEGYQDY; listed as Homo sapiens)" valuereported=3
substance="3521.0038 (EMPSEEGYQD; listed as Homo sapiens)" valuereported=3
substance="3521.0058 (SEEGYQDYEP; listed as Homo sapiens)" valuereported=1
substance="3521.0002 (PSEEGYQDY; listed as Homo sapiens)" valuereported=1
substance="3521.0023 (YEMPSEEGY; listed as Homo sapiens)" valuereported=3
substance="3521.0027 (AYEMPSEEGY; listed as Homo sapiens)" valuereported=2

====

Test system: peripheral blood mononuclear cells (PBMC), T cells
Assay: ELISpot assay, gamma-interferon release (SFC) after stimulation with a-synuclein epitope pools
Type: cell-based, human
Settings: IFNg, Pool Stimulated; pool 'Phospho' (phosphorylated peptides); number of donors with a positive response; Donors tested 1
readoutKind: Pool +

substance="3521.0056 (YEMPSEEGYQ; listed as Homo sapiens)" targetsystem="peripheral blood mononuclear cells (PBMC), T cells" valuereported=0
substance="3521.0002 (PSEEGYQDY; listed as Homo sapiens)" targetsystem="peripheral blood mononuclear cells (PBMC), T cells" valuereported=0
substance="3521.0023 (YEMPSEEGY; listed as Homo sapiens)" targetsystem="peripheral blood mononuclear cells (PBMC), T cells" valuereported=1
substance="3521.0038 (EMPSEEGYQD; listed as Homo sapiens)" targetsystem="peripheral blood mononuclear cells (PBMC), T cells" valuereported=1
substance="3521.004 (DNEAYEMPSE; listed as Homo sapiens)" targetsystem="peripheral blood mononuclear cells (PBMC), T cells" valuereported=0
substance="3521.0026 (MPSEEGYQD; listed as Homo sapiens)" targetsystem="peripheral blood mononuclear cells (PBMC), T cells" valuereported=1
substance="3521.0058 (SEEGYQDYEP; listed as Homo sapiens)" targetsystem="peripheral blood mononuclear cells (PBMC), T cells" valuereported=1
substance="3521.0028 (MPSEEGYQDY; listed as Homo sapiens)" targetsystem="peripheral blood mononuclear cells (PBMC), T cells" valuereported=1
substance="3521.0027 (AYEMPSEEGY; listed as Homo sapiens)" targetsystem="peripheral blood mononuclear cells (PBMC), T cells" valuereported=1

====

System: peripheral blood mononuclear cells (PBMC), T cells
Test: ELISpot assay, IL-5 release (SFC) after stimulation with a-synuclein epitope pools
Type: cell-based, human
Settings: Patients Summary; Phospho pool peptides
Record rule met whenever IL-g Total SFC is at 700 SFC or higher; record rule not met when lower.

substance="3521.0058 (SEEGYQDYEP; listed as Homo sapiens)" classname="rule not met"
substance="3521.0056 (YEMPSEEGYQ; listed as Homo sapiens)" classname="rule not met"
substance="3521.0002 (PSEEGYQDY; listed as Homo sapiens)" classname="rule not met"
substance="3521.0027 (AYEMPSEEGY; listed as Homo sapiens)" classname="rule met"
substance="3521.0023 (YEMPSEEGY; listed as Homo sapiens)" classname="rule met"
substance="3521.0026 (MPSEEGYQD; listed as Homo sapiens)" classname="rule met"
substance="3521.004 (DNEAYEMPSE; listed as Homo sapiens)" classname="rule not met"
substance="3521.0038 (EMPSEEGYQD; listed as Homo sapiens)" classname="rule not met"

====

Here the recorded IFNg Avg SFC is given for each entry.
Tested on: peripheral blood mononuclear cells (PBMC), T cells
Test: ELISpot assay, gamma-interferon release (SFC) after stimulation with a-synuclein epitope pools
Format: cell-based, human
Conditions: Patients Summary; Phospho pool peptides
readoutKind: IFNg Avg SFC (SFC)

substance="3521.0058 (SEEGYQDYEP; listed as Homo sapiens)" unittag=SFC valuereported=107
substance="3521.0023 (YEMPSEEGY; listed as Homo sapiens)" unittag=SFC valuereported=680
substance="3521.0026 (MPSEEGYQD; listed as Homo sapiens)" unittag=SFC valuereported=407
substance="3521.0027 (AYEMPSEEGY; listed as Homo sapiens)" unittag=SFC valuereported=700
substance="3521.0002 (PSEEGYQDY; listed as Homo sapiens)" unittag=SFC valuereported=460
substance="3521.0038 (EMPSEEGYQD; listed as Homo sapiens)" unittag=SFC valuereported=502
substance="3521.004 (DNEAYEMPSE; listed as Homo sapiens)" unittag=SFC valuereported=364
substance="3521.0028 (MPSEEGYQDY; listed as Homo sapiens)" unittag=SFC valuereported=420
